Values from patent US20150139990A1

Parameter: relative binding affinity. Scope: all listed entries.
- System Under Test: T1, human CD81 mutant V169L (human, UniProt P60033 1-236, limits assumed)
- T1 construct: as m30; not shown: C-terminal V5 and 6xHis tags
- T1 sequence: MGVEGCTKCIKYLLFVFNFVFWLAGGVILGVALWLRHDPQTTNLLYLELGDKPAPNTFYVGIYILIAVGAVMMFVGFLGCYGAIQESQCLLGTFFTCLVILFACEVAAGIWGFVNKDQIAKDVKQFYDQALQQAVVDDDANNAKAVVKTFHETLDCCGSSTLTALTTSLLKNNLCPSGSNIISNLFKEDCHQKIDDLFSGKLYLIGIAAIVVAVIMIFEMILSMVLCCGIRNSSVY
- Assay Procedure: ELISA

| Binder | relative binding affinity |
| --- | --- |
| 002-B05 (antibody, human IgG4 S228P, lambda, V domains shown, IgG4 S228P) VH: EVQLLESGGGLVQPGGSLRLSCAASGFTFSSNYMSWVRQAPGKGLEWVSYISSSSTYTDYADSVKGRFTISRDNSKNTLYLQMNSLRAEDTAVYYCARYSYSRDNFDYWGQGTLVTVSS VL: QSVLTQPPSASGTPGQRVTISCTGSTSNIGAGYGTHWYQRLPGTAPKLLIYGNSNRPSGVPDRFSGSKSGTSASLAISGLRSEDEADYYCQSYDTNLSVWVFGGGTKLTVLG | < 20% |
| 002-B07 (antibody, human IgG4 S228P, lambda, V domains shown, IgG4 S228P) VH: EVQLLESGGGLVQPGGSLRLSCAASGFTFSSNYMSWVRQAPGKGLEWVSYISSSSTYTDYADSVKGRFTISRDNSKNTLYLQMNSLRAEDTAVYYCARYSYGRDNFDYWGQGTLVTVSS VL: QSVLTQPSSASGTPGQRVTISCTGSTSNIGAGYDTHWYQQLPGTAPKLLIYGNSNRPSGVPDRFSGSKSGTSASLAISGLRSEDEADYYCQSYDTNLSGWVFGGGTKLTVLG | < 20% |

# relative binding affinity (binder: 002-A07 N113G (antibody, human IgG4 S228P, lambda, V domains shown, IgG4 S228P; glycosylation site mutant of 002-A07 VL) VH: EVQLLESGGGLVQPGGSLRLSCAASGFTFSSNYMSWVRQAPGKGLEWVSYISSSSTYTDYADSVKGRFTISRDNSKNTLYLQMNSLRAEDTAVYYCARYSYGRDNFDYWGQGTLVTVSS VL: QSVLTQPPSASGTPGQRVTISCTGSTSNIGAGYDTHWYQQLPGTAPKLLIYGNSNRPSGVPDRFSGSKSGTSASLAISGLRSEDEADYYCQSYDTGLSVWVFGGGTKLTVLG ) is < 20%
